system: S. aureus UBMS 88-4 (Sensitive); test: MIC, agar dilution; assay type: cell-based; conditions: S. aureus UBMS 88-4 (Sensitive)
Readout Kind: MIC (µg/mL)
One number for each entry, in µg/mL.

COc1ccc(C(=O)Nc2cc(N(C)C)c3c(c2O)C(=O)C2=C(O)C4(O)C(=O)C(C(N)=O)=C(O)C(N(C)C)C4CC2C3)cc1 (stereo not drawn)
8
CC(=O)Nc1cc(I)c2c(c1O)C(=O)C1=C(O)C3(O)C(=O)C(C(N)=O)=C(O)C(N(C)C)C3CC1C2.O=S(=O)(O)O (stereo not drawn)
0.25

Q) Quick one: give measured MIC for CN(C)c1cc(NS(=O)(=O)c2cccc([N+](=O)[O-])c2)c(O)c2c1CC1CC3C(N(C)C)C(O)=C(C(N)=O)C(=O)C3(O)C(O)=C1C2=O (stereo not drawn)
A) 1
